# Test system: K24384-001-R-PDC complex spheroids, viability;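 also: spheroids exposed to compounds for seven days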
# assayMethodText: Anticancer human tumor K24384-001-R-PDC patient-derived pancreatic adenocarcinoma cell line growth inhibition [GQUAD]; active = viability on the fitted dose curve at most 10% of control; inactive = the rest
# conditionParameters: second compound 10 µM; first compound 1 µM
In this exercise, the only acceptable responses are 1 for active, -1 for inactive

Challenge: # lookup: test call for O=C(NO)c1cnc(N2CCN(S(=O)(=O)c3ccc4ccccc4c3)CC2)nc1 + Cc1cnc(CNC(=O)c2c(=O)c3ccc(N4CCCN(C)CC4)nc3n3c2sc2ccccc23)cn1
Response given: 1

Challenge: # lookup: test call for CC1COCCN1c1cc(C2(S(C)(=N)=O)CC2)nc(-c2ccnc3[nH]ccc23)n1 (stereo unspecified) + CN(C)c1ccc(Nc2c3ccc(NC(=O)CCN4CCCC4)cc3nc3cc(NC(=O)CCN4CCCC4)ccc23)cc1
Response given: -1

Challenge: # lookup: test call for C=CC(=O)N1CCN(c2nc(=O)n(-c3c(C)ccnc3C(C)C)c3nc(-c4c(O)cccc4F)c(F)cc23)C(C)C1 (stereo unspecified) + Cc1cnc(CNC(=O)c2c(=O)c3ccc(N4CCCN(C)CC4)nc3n3c2sc2ccccc23)cn1
Response given: -1

Challenge: # lookup: test call for O=C(c1cc(Cc2n[nH]c(=O)c3ccccc23)ccc1F)N1CCN(C(=O)C2CC2)CC1 + CN(C)c1ccc(Nc2c3ccc(NC(=O)CCN4CCCC4)cc3nc3cc(NC(=O)CCN4CCCC4)ccc23)cc1
Response given: -1

Challenge: # lookup: test call for COc1ncnc(C2CC2)c1-c1ncc2cnn(Cc3ccc(-c4nc(C(F)(F)F)cn4C(C)C)cc3)c2n1 + Cc1[nH]c2ccc(F)cc2c1-c1nc2c3cccnc3c3ncccc3c2[nH]1
Response given: -1

Challenge: # lookup: test call for CC(C)n1c(=O)n(C)c2cnc3cc(F)c(-c4ccc(OCCCN5CCCCC5)nc4)cc3c21 + Cc1cnc(CNC(=O)c2c(=O)c3ccc(N4CCCN(C)CC4)nc3n3c2sc2ccccc23)cn1
Response given: -1
